Target: T1, Avi/HisMsIL18BPd (recombinant mouse IL-18BP with Avi and poly-His tags) (mouse, biotinylated with BirA on the Avi tag in some assays)
T1 chain: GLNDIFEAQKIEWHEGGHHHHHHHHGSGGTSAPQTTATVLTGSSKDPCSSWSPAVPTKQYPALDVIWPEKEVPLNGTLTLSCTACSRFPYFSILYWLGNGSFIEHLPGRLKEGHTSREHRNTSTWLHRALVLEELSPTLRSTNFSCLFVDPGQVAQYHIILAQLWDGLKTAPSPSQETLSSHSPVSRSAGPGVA
Assay: cell-based or functional assay
readout_name: EC50 of IFNγ release, mouse splenocytes (nM)
Number in nM, nothing else.

Given item anti-IL-18BP antibody variant BP-04.12 (antibody, V domains shown) VH: QVQLVQSGAEVKKPGASVKVSCKASGYTFTDYDMHWVRQAPGQGLEWMGIYSTYYGVVSYAQKKQGRVTMTRDKSTSTVYMELSSLRSEDTAVYYCARSGTYYYGTRESHALDYWGQGTLVTVSS VL: DIQMTQSPSSVSASVGDRVTITCRASDNVYSNLAWYQQKPGKAPKLLIYGAISLADGVPSRFSGSGSGTDFTLTISSLQPEDFATYYCQHFWGNPYTFGQGTKLEIK , the value recorded as its EC50 of IFNγ release, mouse splenocytes is 0.865

Data point: anti-IL-18BP antibody variant BP-04.30 (antibody, V domains shown) VH: QVQLVQSGAEVKKPGASVKVSCKASGYTFTDYDMHWVRQAPGQGLEWMGIISTYYGDVSYAQKKQGRVTMTRDKSTSTVYMELSSLRSEDTAVYYCARSGTYYYGTRESHALDYWGQGTLVTVSS VL: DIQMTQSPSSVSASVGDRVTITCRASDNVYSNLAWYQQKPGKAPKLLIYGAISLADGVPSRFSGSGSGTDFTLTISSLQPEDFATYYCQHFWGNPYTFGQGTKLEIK ; EC50 of IFNγ release, mouse splenocytes = 7.43

// anti-IL-18BP antibody variant BP-04.21 (antibody, V domains shown) VH: QVQLVQSGAEVKKPGASVKVSCKASGYTFTDYDMHWVRQAPGQGLEWMGIISTYYGVVSYAQKFQGRVTMTRDKSTSTVYMELSSLRSEDTAVYYCARSGTYNYGTRESHALDYWGQGTLVTVSS VL: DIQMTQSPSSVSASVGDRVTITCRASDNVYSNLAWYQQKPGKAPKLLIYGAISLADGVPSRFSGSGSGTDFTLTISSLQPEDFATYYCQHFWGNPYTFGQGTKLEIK : EC50 of IFNγ release, mouse splenocytes value = 595
